Origin of measurements: patent US20220380463A1

Target: T1, Cynomolgus CD3εδ Fc heterodimer (Cy CD3ε Fc / CD3δ Fc-HIS) (cynomolgus, UniProt Q95LI8 22-100)
T1 chain 1: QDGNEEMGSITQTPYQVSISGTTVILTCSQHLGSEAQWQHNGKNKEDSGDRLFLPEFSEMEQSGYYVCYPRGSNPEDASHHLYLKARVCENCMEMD
T1 chain 2: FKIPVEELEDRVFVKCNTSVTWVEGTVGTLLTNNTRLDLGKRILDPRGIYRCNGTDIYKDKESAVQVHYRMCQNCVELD
Assay: BLI (Octet), IgG on AHC sensor, pH 7.4
assay endpoint: kon (M⁻¹ s⁻¹)
State just the number; it will be interpreted in M⁻¹ s⁻¹.

A selection of reference data follows.
Q: Sample SAD10320_P02_G06 (ADI-57371) (antibody, V domains shown, IgG; also called Ab88) VH: QVQLVQSGAEVKKPGASVKVSCKASGFNIKDYYMHWVRQAPGQRLDWMGWIDLENANTIYDAKFQGRVTITRDTSASTAYMELSSLRSEDTAVYYCARDAYGRHFYDVWGQGTLVTVSS VL: DIVMTQSPDSLAVSLGERATINCKSSQSLLNARTRTNYLAWYQQKPGQPPKLLIYWASTRESGVPDRFSGSGSGTDFTLTISSLQAEDVAVYYCKQSYSRRTFGGGTKVEIK — what was its kon?
Result: 338000

Q: Requested read-out: kon. Entry: SAD10320_P01_A03 (ADI-57353) (antibody, V domains shown, IgG; also called Ab60) VH: QVQLVQSGAEVKKPGASVKVSCKASGFNIKDYYMHWVRQAPGQRLEWMGWIDLENANTIYDAKFQGRVTITRDTSASTAYMELSSLRSEDTAVYYCARDHRGRYFYDVWGQGTLVTVSS VL: DIVMTQSPDSLAVSLGERATINCKSSQSLLNARTGKNYLAWYQQKPGQPPKLLIYWASTRESGVPDRFSGSGSGTDFTLTISSLQAEDVAVYYCKQSSHRRTFGGGTKVEIK
Result: 222000

Q: Would you mind telling me what kon value was observed for SAD10319_P02_H06 (ADI-48633) (antibody, V domains shown, IgG; also called Ab16) VH: QVQLVQSGAEVKKPGASVKVSCKASGYTFTAYVMHWVRQAPGQRLEWMGSIDAGTGNTKYSQKFQGRVTITRDTSASTAYMELSSLRSEDTAVYYCARDAYGHYFYDHWGQGTLVTVSS VL: DIVMTQSPDSLAVSLGERATINCKSSQSLLNARTGKNYLAWYQQKPGQPPKLLIYWASTRESGVPDRFSGSGSGTDFTLTISSLQAEDVAVYYCKQSYSRRTFGGGTKVEIK ?
Result: 220000

Q: Reported kon, binder LAD9953_P01_H01 (ADI-57437) (antibody, V domains shown, IgG; also called Ab167) VH: QVQLVQSGAEVKKPGASVKVSCKASGFNIKDYYMHWVRQAPGQRLEWMGWIDLENANTIYDAKFQGRVTITRDTSASTAYMELSSLRSEDTAVYYCARDAYGRYFYDVWGQGTLVTVSS VL: DIVMTQSPDSLAVSLGERATINCKSSQSLLHARTHKNYLAWYQQKPGQPPKLLIYWASTRESGVPDRFSGSGSGTDFTLTISSLQAEDVAVYYCKQSYSRRTFGGGTKVEIK : ____
Result: 242000

Q: kon for SAD10319_P02_E06 (ADI-57323) (antibody, V domains shown, IgG; also called Ab12) VH: QVQLVQSGAEVKKPGASVKVSCKASGYTFADYAMHWVRQAPGQRLAWMGWINPHTGATFYSQKFQGRVTITRDTSASTAYMELSSLRSEDTAVYYCARDAYGRYFYDHWGQGTLVTVSS VL: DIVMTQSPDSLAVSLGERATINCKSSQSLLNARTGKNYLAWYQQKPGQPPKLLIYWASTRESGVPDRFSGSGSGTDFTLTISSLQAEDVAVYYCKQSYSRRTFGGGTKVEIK ?
Result: 440000

Q: Request the reported kon associated with SAD10319_P04_G10 (ADI-57334) (antibody, V domains shown, IgG; also called Ab32) VH: QVQLVQSGAEVKKPGASVKVSCKASGYTFTDYYMHWVRQAPGQRLEWMGWINPATGATAYSQKFQGRVTITRDTSASTAYMELSSLRSEDTAVYYCARDAYGHHFYDVWGQGTLVTVSS VL: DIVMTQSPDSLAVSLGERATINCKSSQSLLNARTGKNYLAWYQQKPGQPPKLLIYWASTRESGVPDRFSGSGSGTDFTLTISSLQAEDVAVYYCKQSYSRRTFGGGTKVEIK
Result: 291000

From here, focus on the item given below.
Q: // lookup kon for LAD9954_P01_B02 (ADI-57438) (antibody, V domains shown, IgG; also called Ab168) VH: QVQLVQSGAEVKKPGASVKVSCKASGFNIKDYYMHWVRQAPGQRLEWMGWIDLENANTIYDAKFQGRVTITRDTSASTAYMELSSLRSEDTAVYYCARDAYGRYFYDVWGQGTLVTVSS VL: DIVMTQSPDSLAVSLGERATINCKSSQSLLHARTGHNYLAWYQQKPGQPPKLLIYWASTRESGVPDRFSGSGSGTDFTLTISSLQAEDVAVYYCKQSYSRRTFGGGTKVEIK
Result: 316000
